biological target: corticotropin releasing factor 1 receptor; test: cell-based or functional assay; further: reference of the scale not given here
Ends that are not written are not given here.
// values below are reported CRF1R Emax
Respond numerically; units are % and should not be typed.

Some binders with recorded CRF1R Emax:
Input: Requested read-out: CRF1R Emax. Entry: IVLSLDVPIGLLQILLEQTKADQLAQQAHSNRKLLDIA-NH2 [SEQ ID NO 159]
Output: 9

Input: What would you report for IVLSLDVPIGLLQILLEQTRADAAREQATTNARILARV-NH2 [SEQ ID NO 126] ?
Output: 7

Input: What do you have for IVLSLDVPIGLLQILLEQAAREQATTNARILARV-NH2 [SEQ ID NO 138] ?
Output: 5

Input: Follow-up entry: ZGPPISIDLPTELLRKMIEIEKQEKEKQQAANNRLLLDTI (C-terminal amide) [SEQ ID NO 71]
Output: 6

Further cases:
Input: Could you tell me which CRF1R Emax is on file for ZGPPISIDLPFVLLRKMIEIEKQEKEKQQAANNRLLLDTI (C-terminal amide) [SEQ ID NO 190] ?
Output: 9

Input: Try this binder too: IVLSLDVPIGLLQILLEQEKQRAAREQATTNARILARV-NH2 [SEQ ID NO 115]
Output: 7

Input: Same read-out for IVLSLDVPIGLLQILLEQTKANAAREQATTVARILARV-NH2 [SEQ ID NO 116] ?
Output: 4.8

Input: Same question, ZGPPISIDLPFHLLRKMIEIEKQEKEKQQAANNRLLLDTI (C-terminal amide) [SEQ ID NO 69] this time
Output: 88

Input: Please do the same for ZGPPISIDLPFQLLRKMIEIEKQEKEKQQATTNARILARV (C-terminal amide) [SEQ ID NO 148] as well.
Output: 100

Input: What do you get for ZGPPISIDLPLFLLRKMIEIEKQEKEKQQAANNRLLLDTI (C-terminal amide) [SEQ ID NO 195] ?
Output: 93

Input: Cool, now ZGPPISIDLPFQLLRKMIEIEKQEKEKQQATNNRLLLDTI (C-terminal amide) [SEQ ID NO 14]
Output: 92

Input: Next binder: ZGPPISIDLPYTLLRKMIEIEKQEKEKQQAANNRLLLDTI (C-terminal amide) [SEQ ID NO 200]
Output: 99
